Value source: patent US6596863B2

Target: human MMP-9 (gelatinase B) (Homo sapiens)
Construct: endogenous in cells; host or cells: HT1080 human fibrosarcoma cells (ATCC CCL-121), PMA-stimulated; enzyme purified from the culture supernatant
Experiment: Inhibition activity against human MMP-9 (gelatinase B), fluorescent peptide substrate
Format: biochemical
Conditions: compounds of the formula (I); 2nd measurement; read-out: MMP-9 inhibition activities IC50, 2nd
pIC50: −log10 of the molar value.
measurementType: pIC50

Take a look at these entries with their results.
Cc1ccc(NC(=C[N+](=O)[O-])NN)cc1 [compound 48]
4.74
COc1ccc(NC(=C[N+](=O)[O-])NN)cc1 [compound 49]
4.74
CNNC(=C[N+](=O)[O-])NC [compound 82]
4.72
CNC(=C[N+](=O)[O-])NN=Cc1ccc(Cl)cc1 [compound 136]
4.53
CNC(=C[N+](=O)[O-])NNc1ccc([N+](=O)[O-])cc1 [compound 13]
4.79
CCCOc1ccc(NC(=C[N+](=O)[O-])NN)cc1 [compound 71]
4.43
CSc1ccc(NC(=C[N+](=O)[O-])NN)cc1 [compound 72]
4.38
NNC(=C[N+](=O)[O-])NS(=O)(=O)c1ccccc1 [compound 156]
4.38

1. Cc1nn(C)c(C)c1NC(=C[N+](=O)[O-])NN [compound 111]
2. CNC(=C[N+](=O)[O-])NNc1ccc(C)cc1 [Compound No. 16]
## Input Select the item with the higher value of pIC50 from the options 1 and 2 listed. Field: selected label. Fill in the label of the entry you choose.
## Output 1
(1: 4.57, 2: 4.36)

---

Target: human MMP-9 (gelatinase B) (Homo sapiens)
Construct: endogenous in cells; host or cells: HT1080 human fibrosarcoma cells (ATCC CCL-121), PMA-stimulated; enzyme purified from the culture supernatant
Experiment: Inhibition activity against human MMP-9 (gelatinase B), fluorescent peptide substrate
Format: biochemical
Settings: compounds of the formula (I); average of 1st and 2nd (or single measurement); read-out: MMP-9 inhibition activities IC50, Average
pIC50: −log10 of the molar value.
measurementType: pIC50

Take a look at these entries with their results.
CNC(=C[N+](=O)[O-])NN=C(C)OC
4.50
COc1cccc(NC(=C[N+](=O)[O-])NN)c1
4.59

1. O=[N+]([O-])C=C(NNc1cc(C(F)(F)F)cc(Cl)n1)NS(=O)(=O)c1ccccc1
2. CNC(=C[N+](=O)[O-])NNc1nc2ccccc2s1
## Input Select the item with the higher value of pIC50 from the options 1 and 2 listed. Field: selected label. Fill in the label of the entry you choose.
## Output 2
(2: 5.74, 1: 5.10)

---

Target: human MMP-9 (gelatinase B) (Homo sapiens, UniProt P14780)
Construct: endogenous in cells; host or cells: HT1080 human fibrosarcoma cells (ATCC CCL-121), PMA-stimulated; enzyme purified from the culture supernatant
Sequence (P14780 107-707 limits assumed): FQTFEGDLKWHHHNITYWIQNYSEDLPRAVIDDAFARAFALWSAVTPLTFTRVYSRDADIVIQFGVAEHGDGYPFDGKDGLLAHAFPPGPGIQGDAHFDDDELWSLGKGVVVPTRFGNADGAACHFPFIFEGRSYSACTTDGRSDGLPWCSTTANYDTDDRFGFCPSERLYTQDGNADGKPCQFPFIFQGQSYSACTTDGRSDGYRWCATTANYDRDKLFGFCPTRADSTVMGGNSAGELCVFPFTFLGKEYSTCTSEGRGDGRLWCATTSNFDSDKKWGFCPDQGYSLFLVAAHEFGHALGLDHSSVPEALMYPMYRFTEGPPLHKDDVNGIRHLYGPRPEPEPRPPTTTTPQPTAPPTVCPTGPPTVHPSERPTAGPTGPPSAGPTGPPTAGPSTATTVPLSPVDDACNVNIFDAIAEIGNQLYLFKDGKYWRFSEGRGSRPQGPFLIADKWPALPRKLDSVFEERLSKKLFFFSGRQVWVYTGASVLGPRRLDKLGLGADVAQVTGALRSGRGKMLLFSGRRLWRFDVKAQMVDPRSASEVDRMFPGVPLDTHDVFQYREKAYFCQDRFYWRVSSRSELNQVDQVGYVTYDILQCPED
Assay: Inhibition activity against human MMP-9 (gelatinase B), fluorescent peptide substrate
Assay type: biochemical
Conditions: compounds of the formula (I); 1st measurement; read-out: MMP-9 inhibition activities IC50, 1st
measurementType: IC50 (µM)

Take a look at these entries with their results.
C=CCOc1cc(C(F)(F)F)cc(NNC(=C[N+](=O)[O-])NC)n1 [compound 130]
7.7
CNC(=C[N+](=O)[O-])NNc1ccnc2cc(Cl)ccc12 [compound 146]
18.4
CNC(=C[N+](=O)[O-])NN=Cc1cccc(C(F)(F)F)c1 [compound 167]
14
CNC(=C[N+](=O)[O-])NNc1ncc(C(F)(F)F)cc1Cl [compound 21]
11.7
CNC(=C[N+](=O)[O-])NNc1cc(C(F)(F)F)cc(OCC2CCCO2)n1 (stereo not drawn) [compound 129]
11.8

1. NNC(=C[N+](=O)[O-])Nc1ccc(OC(F)(F)F)cc1 [Compound No. 61]
2. CNC(=C[N+](=O)[O-])NNc1ccc(C(F)(F)F)cn1 [Compound No. 19]
3. CNC(=C[N+](=O)[O-])NN=Cc1ccc(C)cc1 [compound 137]
4. CC(=C(NNc1cc(C(F)(F)F)cc(Cl)n1)NS(C)(=O)=O)[N+](=O)[O-] [compound 165]
## Input Write the entries in order, lowest recorded IC50 first. Your task in answering is to list the labels in the requested order.
## Output 4, 2, 3, 1
